# target.of.assay: FGFR3 (h) (Homo sapiens, UniProt P22607)
# Sequence (P22607 23-806): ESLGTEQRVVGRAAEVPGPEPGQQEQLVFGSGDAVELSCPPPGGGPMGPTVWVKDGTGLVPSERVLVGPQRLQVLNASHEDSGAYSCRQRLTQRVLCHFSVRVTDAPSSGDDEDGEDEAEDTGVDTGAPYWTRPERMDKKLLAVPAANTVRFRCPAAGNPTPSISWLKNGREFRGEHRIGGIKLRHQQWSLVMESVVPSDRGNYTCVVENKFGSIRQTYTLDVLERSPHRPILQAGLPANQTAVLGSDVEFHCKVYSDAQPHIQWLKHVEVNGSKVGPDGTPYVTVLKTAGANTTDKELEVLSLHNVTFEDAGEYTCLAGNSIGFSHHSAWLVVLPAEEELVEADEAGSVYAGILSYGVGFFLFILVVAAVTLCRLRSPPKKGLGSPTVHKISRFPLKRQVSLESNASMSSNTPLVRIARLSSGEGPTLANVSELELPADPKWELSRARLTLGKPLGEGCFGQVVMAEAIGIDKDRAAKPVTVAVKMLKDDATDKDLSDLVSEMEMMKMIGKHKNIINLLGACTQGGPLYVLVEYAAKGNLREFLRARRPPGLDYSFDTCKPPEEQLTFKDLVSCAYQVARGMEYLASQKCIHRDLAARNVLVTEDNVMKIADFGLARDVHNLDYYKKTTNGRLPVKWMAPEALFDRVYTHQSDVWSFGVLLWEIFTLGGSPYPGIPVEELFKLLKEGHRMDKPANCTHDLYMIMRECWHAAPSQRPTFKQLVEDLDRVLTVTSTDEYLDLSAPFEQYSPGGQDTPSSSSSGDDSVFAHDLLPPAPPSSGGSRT
# protocol.text: FGFR3 (enzymatic assay), TR-FRET
# Format: biochemical
# details: read-out: FGFR 3 pIC50 (converted)
readout.label: IC50 (nM)
Give bare numbers, in nM.

# compound, IC50 (nM)
data = [
    ("COc1cc(OC)c(F)c(N(Cc2ccn(C)n2)c2ccc3ncc(-c4cnn(C)c4)nc3n2)c1", 1.05),
    ("COc1cc(OC)c(F)c(N(CCS(C)(=O)=O)c2ccc3ncc(-c4cnn(C)c4)nc3n2)c1", 1.12),
    ("COCC(O)Cn1/c(=N/c2cc(OC)cc(OC)c2F)ccc2ncc(-c3cnn(C)c3)nc21 (single isomer, unassigned)", 0.525),
    ("COc1cc(OC)c(F)c(N(CC2CCC(=O)N2)c2ccc3ncc(-c4cnn(C5CNC5)c4)nc3n2)c1 (stereo not drawn)", 3.55),
    ("COc1cc(OC)c(F)c(N(CC2CCC(=O)N2C)c2ccc3ncc(-c4cnn(C)c4)nc3n2)c1 (stereo not drawn) [Compound 159]", 5.89),
    ("COc1ccc(Cl)c(N(CC2CCC(=O)N2)c2ccc3ncc(-c4cnn(C)c4)nc3n2)c1Cl (single isomer, unassigned) [Compound 91]", 138),
    ("COc1cc(OC)c(F)c(N(CCN2CCCC2=O)c2ccc3ncc(-c4cnn(C)c4)nc3n2)c1", 5.62),
]

Shifting focus to the compound that follows.
[in] Quick one: IC50 of COc1cc(OC)c(F)c(N(Cc2nc(CO)c[nH]2)c2ccc3ncc(-c4cnn(C)c4)nc3n2)c1 ?
[out] 1.29
